MIC values for the compounds below.
# Test system: Streptococcus pneumoniae ATCC 6303
# assay: In vitro agar dilution MIC, organism code XX
# Assay type: cell-based
# test-parameters: Table 1B, unit assumed

Examples with answers:
Which MIC is reported for this compound? CC[C@H]1OC(=O)[C@@](C)(F)C(=O)[C@H](C)[C@@H](O[C@@H]2O[C@H](C)C[C@H](N(C)C)[C@H]2O)[C@](C)(OC/C=C/c2ccc3nccnc3c2)C[C@@H](C)C(=O)[C@H](C)[C@H]2NC(=O)O[C@@]21C ≤ 4 ng/mL

Do the same for CC[C@H]1OC(=O)[C@@](C)(F)C(=O)[C@H](C)[C@@H](O[C@@H]2O[C@H](C)C[C@H](N(C)C)[C@H]2O)[C@](C)(OC/C=C/c2cnc3ccc([N+](=O)[O-])cc3c2)C[C@@H](C)C(=O)[C@H](C)[C@H]2NC(=O)O[C@@]21C please ≤ 4 ng/mL

Next:
Which MIC is reported for this compound? CC[C@H]1OC(=O)C(C)(F)C(=O)[C@H](C)[C@@H](O[C@@H]2O[C@H](C)C[C@H](N(C)C)[C@H]2O)[C@](C)(OCC#CC(=O)c2ccc(Cl)nc2)C[C@@H](C)C(=O)[C@H](C)[C@H]2NC(=O)O[C@@]21C (stereo partly drawn) ≤ 4 ng/mL

* * *

# Tested on: Nocardia asteroides ATCC 9970
# assay: In vitro agar dilution MIC, organism code VV
# Format: cell-based
# test-parameters: Table 1B, in µg/mL (unit assumed)
MIC values for the molecules below.

Which MIC is reported for this molecule? CC[C@H]1OC(=O)C(C)(F)C(=O)[C@H](C)[C@@H](O[C@@H]2O[C@H](C)C[C@H](N(C)C)[C@H]2O)[C@](C)(OCC#Cc2ccc(-c3cccs3)s2)C[C@@H](C)C(=O)[C@H](C)[C@H]2NC(=O)O[C@@]21C (stereo partly drawn) 0.02

Do the same for CC[C@H]1OC(=O)[C@@](C)(F)C(=O)[C@H](C)[C@@H](O[C@@H]2O[C@H](C)C[C@H](N(C)C)[C@H]2O)[C@](C)(OC/C=C/c2cnc3ccc(C=NN)cc3c2)C[C@@H](C)C(=O)[C@H](C)[C@H]2NC(=O)O[C@@]21C please 0.02

Do the same for CC[C@H]1OC(=O)[C@@](C)(F)C(=O)[C@H](C)[C@@H](O[C@@H]2O[C@H](C)C[C@H](N(C)C)[C@H]2O)[C@](C)(OC/C=C/c2cnc3ccc(C=NN=C(C)C)cc3c2)C[C@@H](C)C(=O)[C@H](C)[C@H]2NC(=O)O[C@@]21C please 0.02

Do the same for CC[C@H]1OC(=O)C(C)(F)C(=O)[C@H](C)[C@@H](O[C@@H]2O[C@H](C)C[C@H](N(C)C)[C@H]2O)[C@](C)(OCC#Cc2cnc3ccccc3c2)C[C@@H](C)C(=O)[C@H](C)[C@H]2NC(=O)O[C@@]21C (stereo partly drawn) please 0.01

Do the same for CC[C@H]1OC(=O)[C@@](C)(F)C(=O)[C@H](C)[C@@H](O[C@@H]2O[C@H](C)C[C@H](N(C)C)[C@H]2O)[C@](C)(OC/C=C/c2cnc3ccccc3c2)C[C@@H](C)C(=O)[C@H](C)[C@H]2NC(=O)O[C@@]21C please 0.005

Do the same for CC[C@H]1OC(=O)C(C)(F)C(=O)[C@H](C)[C@@H](O[C@@H]2O[C@H](C)C[C@H](N(C)C)[C@H]2O)[C@](C)(OC)C[C@@H](C)C2=NCCN3C(=O)O[C@@]1(C)[C@H]3[C@H]2C (stereo partly drawn) please 0.05

Do the same for CC[C@H]1OC(=O)[C@@](C)(F)C(=O)[C@H](C)[C@@H](O[C@@H]2O[C@H](C)C[C@H](N(C)C)[C@H]2O)[C@](C)(OC/C=C/c2cnc3ccc(C=NO)cc3c2)C[C@@H](C)C(=O)[C@H](C)[C@H]2NC(=O)O[C@@]21C please 0.01

Do the same for CC[C@H]1OC(=O)[C@@](C)(F)C(=O)[C@H](C)[C@@H](O[C@@H]2O[C@H](C)C[C@H](N(C)C)[C@H]2O)[C@](C)(OC/C=C/c2cnc3ccc([N+](=O)[O-])cc3c2)C[C@@H](C)C(=O)[C@H](C)[C@H]2NC(=O)O[C@@]21C please 0.02

Do the same for CC[C@H]1OC(=O)[C@@](C)(F)C(=O)[C@H](C)[C@@H](O[C@@H]2O[C@H](C)C[C@H](N(C)C)[C@H]2O)[C@](C)(OC/C=C/c2cnc3ccc(N)cc3c2)C[C@@H](C)C(=O)[C@H](C)[C@H]2NC(=O)O[C@@]21C please < 0.005

Do the same for CC[C@H]1OC(=O)[C@@](C)(F)C(=O)[C@H](C)[C@@H](O[C@@H]2O[C@H](C)C[C@H](N(C)C)[C@H]2O)[C@](C)(OC/C=C/c2cnc3ccc(C(N)=O)cc3c2)C[C@@H](C)C(=O)[C@H](C)[C@H]2NC(=O)O[C@@]21C please 0.05

Next:
Which MIC is reported for this molecule? CC[C@H]1OC(=O)[C@@](C)(F)C(=O)[C@H](C)[C@@H](O[C@@H]2O[C@H](C)C[C@H](N(C)C)[C@H]2O)[C@](C)(OC/C=C/c2cnc3ccc(C=O)cc3c2)C[C@@H](C)C(=O)[C@H](C)[C@H]2NC(=O)O[C@@]21C 0.02

Do the same for CC[C@H]1OC(=O)[C@@](C)(F)C(=O)[C@H](C)[C@@H](O[C@@H]2O[C@H](C)C[C@H](N(C)C)[C@H]2O)[C@](C)(OC/C=C/c2cnc3ccc(NC(=O)OC(C)(C)C)cc3c2)C[C@@H](C)C(=O)[C@H](C)[C@H]2NC(=O)O[C@@]21C please 0.78
